experimental.details: Mouse PK studies after oral and IV dosing
Assay type: in vivo
condition.details: in vivo, po, 3 mg/kg, PO, dose 3 mg/kg, read-out: PO T1/2 (converted)
Entries and their measured half-life follow.

Task: Could you share which half-life value was measured for C[C@H]1CC2(CCN(c3ccc(C(=O)N4CCN(CC5CN(c6ccc7c(c6)C(=O)N(C6CCC(=O)NC6=O)C7=O)C5)CC4)c(F)c3)CC2)CN1c1ccc(C#N)c(Cl)c1 (stereo partly drawn) [Cpd. No. 529] ?
Output: 8.5 h

Continuing:
Task: # half-life lookup, item C[C@H]1CC2(CCN(c3ccc(C(=O)N4CCN(CC5CN(c6ccc7c(c6)C(=O)N(C6CCC(=O)NC6=O)C7=O)C5)CC4)cc3F)CC2)CN1c1ccc(C#N)c(Cl)c1 (stereo partly drawn) [Cpd. No. 528]
Output: 8.8 h

Task: Now try C[C@H]1CC2(CCN(c3cnc(C(=O)N4CCC(CN5Cc6cc7c(cc6C5)C(=O)N(C5CCC(=O)NC5=O)C7=O)CC4)cn3)CC2)CN1c1ccc(C#N)c(Cl)c1 (stereo partly drawn) [Cpd. No. 495] .
Output: 3.4 h

Task: C[C@H]1CC2(CCN(c3cnc(C(=O)N4CCC(CN5CCN(c6cc7c(cc6F)C(=O)N(C6CCC(=O)NC6=O)C7=O)CC5)CC4)cn3)CC2)CN1c1ccc(C#N)c(Cl)c1 (stereo partly drawn) [Cpd. No. 493] , same question.
Output: 4.8 h

Task: Same again, this time with C[C@H]1CC2(CCN(c3ccc(C(=O)N4CCC(N5CCN(c6ccc7c(c6)C(=O)N(C6CCC(=O)NC6=O)C7=O)CC5)CC4)cc3)CC2)CN1c1ccc(C#N)c(Cl)c1 (stereo partly drawn) [Cpd. No. 443]
Output: 5.38 h

Task: Could you do the same for C[C@H]1CC2(CCN(c3ccc(C(=O)N4CCN(CC5CN(c6cc7c(cc6F)C(=O)N(C6CCC(=O)NC6=O)C7=O)C5)CC4)nn3)CC2)CN1c1ccc(C#N)c(Cl)c1 (stereo partly drawn) [Cpd. No. 485] , please?
Output: 7.2 h
